Assay name: total protein half-life in vivo (active degradation + dilution); higher = more stable protein
Condition description: E. coli NCM3722 delta-clpP; growth: N-lim chemostat; doubling time 6 h
Property name: total protein half-life in vivo (h)
Reply numerically in h, unit not repeated.

input: So what's the measured total protein half-life in vivo for this one? MKLNIRAQTAQNQHNNSPIVLVHGLFGSLDNLGVLARDLVNDHNIIQVDMRNHGLSPRDPVMNYPAMAQDLVDTLDAQQIDKATFIGHSMGGKAVMALTALASDRIDKLVAIDIAPVDYHVRRHDEIFAAINAVSESDAQTRQQAAAIMRQHLNEEGVIQFLLKSFVDGEWRFNVPVLWDQYPHIVGWEKIPAWDHPALFIPGGNSPYVSEQYRDDLLAQFPQARAHVIAGAGHWVHAEKPDAVLRAIRRYLND
output: 5.13

input: Quick one: total protein half-life in vivo for MQKIVIVANGAPYGSESLFNSLRLAIALREQESNLDLRLFLMSDAVTAGLRGQKPGEGYNIQQMLEILTAQNVPVKLCKTCTDGRGISTLPLIDGVEIGTLVELAQWTLSADKVLTF [P0AB52] ?
output: 5.32

input: Which total protein half-life in vivo is reported for this sequence? MIKKIGVLTSGGDAPGMNAAIRGVVRSALTEGLEVMGIYDGYLGLYEDRMVQLDRYSVSDMINRGGTFLGSARFPEFRDENIRAVAIENLKKRGIDALVVIGGDGSYMGAMRLTEMGFPCIGLPGTIDNDIKGTDYTIGFFTALSTVVEAIDRLRDTSSSHQRISVVEVMGRYCGDLTLAAAIAGGCEFVVVPEVEFSREDLVNEIKAGIAKGKKHAIVAITEHMCDVDELAHFIEKETGRETRATVLGHIQRGGSPVPYDRILASRMGAYAIDLLLAGYGGRCVGIQNEQLVHHDIIDAIENMKRPFKGDWLDCAKKLY [P0A796]
output: 3.9

---

Assay name: total protein half-life in vivo (active degradation + dilution); higher = more stable protein
Condition description: wild type E. coli NCM3722; growth: C-lim chemostat; doubling time 12 h
Property name: total protein half-life in vivo (h)
Give a bare numeral; the unit h is implied.

input: Quick check: total protein half-life in vivo of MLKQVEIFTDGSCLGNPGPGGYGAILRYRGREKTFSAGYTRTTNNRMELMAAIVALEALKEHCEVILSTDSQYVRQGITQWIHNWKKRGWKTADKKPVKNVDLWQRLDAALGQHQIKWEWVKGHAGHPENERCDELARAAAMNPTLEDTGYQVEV [P0A7Y4] ?
output: 9.26

input: Return reported total protein half-life in vivo; argument: MLAKRIIPCLDVRDGQVVKGVQFRNHEIIGDIVPLAKRYAEEGADELVFYDITASSDGRVVDKSWVSRVAEVIDIPFCVAGGIKSLEDAAKILSFGADKISINSPALADPTLITRLADRFGVQCIVVGIDTWYDAETGKYHVNQYTGDESRTRVTQWETLDWVQEVQKRGAGEIVLNMMNQDGVRNGYDLEQLKKVREVCHVPLIASGGAGTMEHFLEAFRDADVDGALAASVFHKQIINIGELKAYLATQGVEIRIC
output: 9.44

input: Request the reported total protein half-life in vivo associated with MLSRHINYFLAVAEHGSFTRAASALHVSQPALSQQIRQLEESLGVPLFDRSGRTIRLTDAGEVWRQYASRALQELGAGKRAIHDVADLTRGSLRIAVTPTFTSYFIGPLMADFYARYPSITLQLQEMSQEKIEDMLCRDELDVGIAFAPVHSPELEAIPLLTESLALVVAQHHPLAVHEQVALSRLHDEKLVLLSAEFATREQIDHYCEKAGLHPQVVIEANSISAVLELIRRTSLSTLLPAAIATQHDGLKAISLAPPLLERTAVLLRRKNSWQTAAAKAFLHMALDKCAVVGGNESR
output: 6.21

input: Can you look up the measured total protein half-life in vivo of MLKIIRAGMYTTVQDGGRHGFRQSGISHCGALDMPALRIANLLVGNDANAPALEITLGQLTVEFETDGWFALTGAGCEARLDDNAVWTGWRLPMKAGQRLTLKRPQHGMRSYLAVAGGIDVPPVMGSCSTDLKVGIGGLEGRLLKDGDRLPIGKSKRDSMEAQGVKQLLWGNRIRALPGPEYHEFDRASQDAFWRSPWQLSSQSNRMGYRLQGQILKRTTDRELLSHGLLPGVVQVPHNGQPIVLMNDAQTTGGYPRIACIIEADMYHLAQIPLGQPIHFVQCSLEEALKARQDQQRYFEQLAWRLHNEN for me?
output: 10.1

input: Field request: total protein half-life in vivo | item: MTDKLTSLRQYTTVVADTGDIAAMKLYQPQDATTNPSLILNAAQIPEYRKLIDDAVAWAKQQSNDRAQQIVDATDKLAVNIGLEILKLVPGRISTEVDARLSYDTEASIAKAKRLIKLYNDAGISNDRILIKLASTWQGIRAAEQLEKEGINCNLTLLFSFAQARACAEAGVFLISPFVGRILDWYKANTDKKEYAPAEDPGVVSVSEIYQYYKEHGYETVVMGASFRNIGEILELAGCDRLTIAPALLKELAESEGAIERKLSYTGEVKARPARITESEFLWQHNQDPMAVDKLAEGIRKFAIDQEKLEKMIGDLL [P0A870]
output: 11.1

input: Need total protein half-life in vivo, item MKDKVYKRPVSILVVIYAQDTKRVLMLQRRDDPDFWQSVTGSVEEGETAPQAAMREVKEEVTIDVVAEQLTLIDCQRTVEFEIFSHLRHRYAPGVTRNTESWFCLALPHERQIVFTEHLAYKWLDAPAAAALTKSWSNRQAIEQFVINAA [P0AFC0]
output: 4.68

---

Provide the reported total protein half-life in vivo of each item.
Assay name: total protein half-life in vivo (active degradation + dilution); higher = more stable protein
Condition description: wild type E. coli NCM3722; growth: P-lim chemostat; doubling time 12 h
Provide the reading as a plain figure in h.

input: Can you share its total protein half-life in vivo? I mean this sequence: MTAPSQVLKIRRPDDWHLHLRDGDMLKTVVPYTSEIYGRAIVMPNLAPPVTTVEAAVAYRQRILDAVPAGHDFTPLMTCYLTDSLDPNELERGFNEGVFTAAKLYPANATTNSSHGVTSIDAIMPVLERMEKIGMPLLVHGEVTHADIDIFDREARFIESVMEPLRQRLTALKVVFEHITTKDAADYVRDGNERLAATITPQHLMFNRNHMLVGGVRPHLYCLPILKRNIHQQALRELVASGFNRVFLGTDSAPHARHRKESSCGCAGCFNAPTALGSYATVFEEMNALQHFEAFCSVNGPQFYGLPVNDTFIELVREEQQVAESIALTDDTLVPFLAGETVRWSVKQ
output: 13.6

input: Quick one: total protein half-life in vivo of MVELKEPLATLWRGKDAFAEVKKLNGEVFRELETRRTLRFELSGKSYFLKWHKGTTLKEIIKNLLSLRMPVLGADREWHAIHRLSDVGVDTMKGIGFGEKGLNPLTRASFIITEDLTPTISLEDYCADWAVNPPDIRVKRMLIARVATMVRKMHTAGINHRDCYICHFLLHLPFTGREDELKISVIDLHRAQIRAKVPRRWRDKDLIGLYFSSMNIGLTQRDIWRFMKVYFGMPLRKILSLEQNLLNMASVKAERIKERTQRKGL ?
output: 12

---

Could you please report measured total protein half-life in vivo for the items listed next?
Assay name: total protein half-life in vivo (active degradation + dilution); higher = more stable protein
Condition description: E. coli NCM3722 delta-smpB; growth: N-lim chemostat; doubling time 6 h

input: Which total protein half-life in vivo is reported for this sequence? MNRIEHYHDWLRDAHAMEKQAESMLESMASRIDNYPELRARIEQHLSETKNQIVQLETILDRNDISRSVIKDSMSKMAALGQSIGGIFPSDEIVKGSISGYVFEQFEIACYTSLLAAAKNAGDTASIPTIEAILNEEKQMADWLIQNIPQTTEKFLIRSETDGVEAKK
output: 3.94 h

input: What total protein half-life in vivo value was documented for this sequence, MSEQLTDQVLVERVQKGDQKAFNLLVVRYQHKVASLVSRYVPSGDVPDVVQEAFIKAYRALDSFRGDSAFYTWLYRIAVNTAKNYLVAQGRRPPSSDVDAIEAENFESGGALKEISNPENLMLSEELRQIVFRTIESLPEDLRMAITLRELDGLSYEEIAAIMDCPVGTVRSRIFRAREAIDNKVQPLIRR [P0AGB6] ?
output: 6.14 h

input: For the sequence MATTQQSGFAPAASPLASTIVQTPDDAIVAGFTSIPSQGDNMPAYHARPKQSDGPLPVVIVVQEIFGVHEHIRDICRRLALEGYLAIAPELYFREGDPNDFADIPTLLSGLVAKVPDSQVLADLDHVASWASRNGGDVHRLMITGFCWGGRITWLYAAHNPQLKAAVAWYGKLTGDKSLNSPKQPVDIATDLNAPILGLYGGQDNSIPQESVETMRQALRAANAKAEIIVYPDAGHAFNADYRPSYHAASAEDGWQRMLEWFKQYGGKKSL , what total protein half-life in vivo is on record?
output: 3.92 h

Origin of the recorded values: the supplement of paper PMC11246515
